Data provenance: PubChem BioAssay AID2060900

Test system: 521955-158-R2-J5-PDC complex spheroids, viability;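 further: spheroids also contain HUVEC endothelial cells and mesenchymal stem cells as stroma; compound exposure lasted seven days before the viability read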
TEST_SUMMARY: Anticancer human tumor 521955-158-R2-J5-PDC patient-derived pancreatic carcinoma cell line growth inhibition [RAS]
TEST_SETTINGS: second compound 0.000949 µM; first compound 0.1 µM; hits give low values
OBSERVABLE: viability, T/C

Lookup: Notebook entry, 521955-158-R2-J5-PDC complex spheroids, viability assay: viability, T/C of CCN1CCN(Cc2ccc(Nc3ncc(F)c(-c4cc(F)c5nc(C)n(C(C)C)c5c4)n3)nc2)CC1 + CCn1c(-c2cccnc2C(C)OC)c2c3cc(ccc31)N1CCOC(CC(NC(=O)C(C(C)C)N(C)C(=O)C3(F)CCN(C(=O)C#CC(C)(C)N(C)C)CC3)C(=O)N3CCCC(N3)C(=O)OCC(C)(C)C2)C1 = ?
Found: 80.1%

Lookup: Under 521955-158-R2-J5-PDC complex spheroids, viability: viability, T/C value of Cc1nc(N2CCC3(CC2)COC(C)C3N)c(CO)nc1Sc1ccnc(N)c1Cl (stereo unspecified) + CCn1c(-c2cc(N3CCN(C)CC3)cnc2C(C)OC)c2c3cc(ccc31)-c1csc(n1)CC(NC(=O)C1CC1C)C(=O)N1CCCC(N1)C(=O)OCC(C)(C)C2 ?
Found: 31%

Lookup: Form entry - test system: 521955-158-R2-J5-PDC complex spheroids, viability; read-out: viability, T/C; compound: CC1(O)CCCC1n1c(=O)c(C(F)F)cc2cnc(NC3CCN(S(C)(=O)=O)CC3)nc21 (stereo unspecified) + CCn1c(-c2cccnc2C(C)OC)c2c3cc(ccc31)N1CCOC(CC(NC(=O)C(C(C)C)N(C)C(=O)C3(F)CCN(C(=O)C#CC(C)(C)N(C)C)CC3)C(=O)N3CCCC(N3)C(=O)OCC(C)(C)C2)C1;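 further: spheroids also contain HUVEC endothelial cells and mesenchymal stem cells as stroma; compound exposure lasted seven days before the viability read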
Found: 66.1%

Lookup: What value of viability, T/C on 521955-158-R2-J5-PDC complex spheroids, viability does C=CC(=O)Nc1cc(Nc2nccc(-c3cn(C)c4ccccc34)n2)c(OC)cc1N(C)CCN(C)C + CCn1c(-c2cc(N3CCN(C)CC3)cnc2C(C)OC)c2c3cc(ccc31)-c1csc(n1)CC(NC(=O)C1CC1C)C(=O)N1CCCC(N1)C(=O)OCC(C)(C)C2 have?
Found: 43.4%

Lookup: Item CC1(O)CCCC1n1c(=O)c(C(F)F)cc2cnc(NC3CCN(S(C)(=O)=O)CC3)nc21 (stereo unspecified) + CCn1c(-c2cc(N3CCN(C)CC3)cnc2C(C)OC)c2c3cc(ccc31)-c1csc(n1)CC(NC(=O)C1CC1C)C(=O)N1CCCC(N1)C(=O)OCC(C)(C)C2 with 521955-158-R2-J5-PDC complex spheroids, viability - viability, T/C?
Found: 39%

Lookup: Find viability, T/C (521955-158-R2-J5-PDC complex spheroids, viability) for the entry CC(C)NCC(C(=O)N1CCN(c2ncnc3c2C(C)CC3O)CC1)c1ccc(Cl)cc1 (stereo unspecified) + CCn1c(-c2cccnc2C(C)OC)c2c3cc(ccc31)N1CCOC(CC(NC(=O)C(C(C)C)N(C)C(=O)C3(F)CCN(C(=O)C#CC(C)(C)N(C)C)CC3)C(=O)N3CCCC(N3)C(=O)OCC(C)(C)C2)C1
Found: 85.3%
